- Tested on: LOX IMVI
- protocol-notes: NCI tumour cell line growth inhibition, 48 h
Active and inactive are the calls of the source. Rule as the data show it: active = GI50 up to about 1.1 µM and inactive = higher.
metric-name: GI50

Respond only with GI50 recorded for BrC12c3ccccc3Sc3ccccc3C1(Br)c1ccccc12 (centres undefined)
15.8 µM (inactive)

Respond only with GI50 recorded for O=C(c1ccccc1)c1ccc(COc2ccc(C(c3c(O)c4ccccc4oc3=O)c3c(O)c4ccccc4oc3=O)cc2)cc1
23.9 µM (inactive)

Respond only with GI50 recorded for O=[N+]([O-])c1ccccc1CSc1nc(O)c2nc[nH]c2n1
> 100 µM (inactive)

Respond only with GI50 recorded for O=C1c2ccccc2-c2cc3ccccc3c(=O)n21
> 100 µM (inactive)

Respond only with GI50 recorded for O=C(CC(=O)Nc1ccccc1)N/N=C/c1cc(/N=N/c2ccc(Br)cc2)ccc1O
4.28 µM (inactive)

Respond only with GI50 recorded for CCOCCOc1ccc(OCCOCC)cc1
17.9 µM (inactive)

Respond only with GI50 recorded for FC(F)(F)c1ccc2c(c1)nc(-c1ccccc1)n2CC1CCCN2CCCCC12 (centres undefined)
15.4 µM (inactive)

Respond only with GI50 recorded for CC(C)(C)C(=O)C(CC(=O)c1ccccc1)C(=O)C(C)(C)C
> 100 µM (inactive)

Respond only with GI50 recorded for CCc1ccccc1NC(=O)C(=O)CC(=O)c1sc(Nc2ccccc2)nc1C
> 100 µM (inactive)

###

- Test system: 786-0
- protocol-notes: NCI tumour cell line growth inhibition, 48 h
Activity calls are given as the source filed them. Rule as the data show it: active = GI50 up to about 1.1 µM and inactive = higher. Peptide text beside a SMILES is read from it. * marks the point of attachment. Cbz = O=C(OCc1ccccc1)*
metric-name: GI50

Respond only with GI50 recorded for c1ccc2c(CNCCCCCCNCc3cccc4ccccc34)cccc2c1
13 µM (inactive)

Respond only with GI50 recorded for CC1=C(C(=O)NCc2ccccc2)C(c2ccccc2C)C(C(=O)NCc2ccccc2)=C(C)N1
25.1 µM (inactive)

Respond only with GI50 recorded for Sc1nnc(COc2ccc(Cl)cc2)[nH]1
> 100 µM (inactive)

Respond only with GI50 recorded for Nc1nc(N)c2ncn(-c3ccc(Cl)cc3)c2n1
70.3 µM (inactive)

Respond only with GI50 recorded for CCCN(C(=O)c1ccccc1)C(C#N)c1ccc(C(C#N)N(CCC)C(=O)c2ccccc2)cc1 (stereo not given)
38.1 µM (inactive)

Respond only with GI50 recorded for O=C(Nc1ccccc1C(=O)O)/C(=C/c1ccccc1)NC(=O)c1ccccc1
> 100 µM (inactive)

Respond only with GI50 recorded for COc1cc(CNc2nc3cc(C(F)(F)F)ccc3nc2C(=O)O)cc(OC)c1OC
19.3 µM (inactive)

Respond only with GI50 recorded for COc1ccc(/C=C2\CCC(C)(CN(C)C)C2=O)cc1Br (stereo not given)
19.6 µM (inactive)

Respond only with GI50 recorded for CN(C)/N=N/c1ccc(C(N)=O)cc1
> 100 µM (inactive)

Respond only with GI50 recorded for COc1ccc([C@@H]2CC(=O)N2)cc1
> 100 µM (inactive)

Respond only with GI50 recorded for O=c1[nH]c(-c2ccccc2)nc2cc([N+](=O)[O-])c(/C(Cl)=C/c3ccccc3)cc12
35 µM (inactive)

Respond only with GI50 recorded for CC(=O)OCC1OC(O[C@@H]2C[C@H]3C(C)(C)[C@H](OC(C)=O)CC[C@]3(C)[C@H]3CC[C@@]45C[C@H](O)C[C@H](C)[C@@H]4CC=C5[C@@]32C)C(O)C(O)C1O (stereo not given in full)
3.83 µM (inactive)

Respond only with GI50 recorded for O=c1[nH]c(=O)n(C2OC(COP(=O)(O)OP(=O)(O)O)C(O)C2O)cc1F (stereo not given)
0.239 µM (active)

Respond only with GI50 recorded for O=[N+]([O-])c1cccc2nc3ccccc3c(NCCCN3CCOCC3)c12
< 0.0106 µM (active)

Respond only with GI50 recorded for CC1OC(O[C@H]2CC[C@]3(C)[C@H]4CC=C5[C@@H]6[C@@H](C)[C@H](C)CC[C@]6(C(=O)OC6OC(CO)C(O)C(O)C6O)CC[C@@]5(C(=O)O)[C@]4(C)CC[C@H]3C2(C)C)C(O)C(O)C1O (stereo not given in full)
> 100 µM (inactive)

Respond only with GI50 recorded for CC(=O)OC1=C2CC3(C)OC(=O)CC(C)(C)C3=CC=C2C=C(C(C)C)C1=O (stereo not given)
0.203 µM (active)

Respond only with GI50 recorded for O=C1/C(=C/c2ccccc2)CCc2ccccc21
17.5 µM (inactive)

Respond only with GI50 recorded for O=c1c2ccccc2n2c(S)nnc2n1-c1ccccc1
> 100 µM (inactive)

Respond only with GI50 recorded for CC(=O)/N=C1/N(/C=C2\C(=O)Oc3ccccc3C2=O)C(=O)/C(=C/c2ccc(OC(C)=O)cc2)N1C
> 100 µM (inactive)

Respond only with GI50 recorded for Nc1cc2[nH]c(=O)c3cc(Cl)ccc3c2cc1Cl
14.8 µM (inactive)

Respond only with GI50 recorded for Oc1ccccc1/C=N/Nc1nc(N/N=C/c2ccccc2O)nc(N/N=C/c2ccccc2O)n1
40.2 µM (inactive)

Respond only with GI50 recorded for CNC(=O)N1CN(c2ccccc2)C2(CCN(CCCC(=O)c3ccc(F)cc3)CC2)C1=O
26.1 µM (inactive)

Respond only with GI50 recorded for COP1(=O)CC2C(Cl)(Cl)C2(C)C1 (stereo not given)
> 100 µM (inactive)

Respond only with GI50 recorded for O=C(Nc1ccccc1Br)c1cccc([N+](=O)[O-])c1O
3.99 µM (inactive)

Respond only with GI50 recorded for O=C(OCC1OC(c2nn[nH]n2)C(OC(=O)c2ccccc2)C1OC(=O)c1ccccc1)c1ccccc1 (stereo not given)
> 100 µM (inactive)

Respond only with GI50 recorded for Clc1ccc(C2=NOC3C4CCC(C4)C23)cc1 (stereo not given)
> 100 µM (inactive)

Respond only with GI50 recorded for Clc1cc2c(cc1Cl)CC(NCCN1CCCC1)CC2 (stereo not given)
13.2 µM (inactive)

Respond only with GI50 recorded for O=C(O)CCC(NC(=O)OCc1ccccc1)C(=O)NC(Cc1c[nH]cn1)C(=O)O (stereo not drawn) (Cbz-Glu-His-OH; configuration not given here)
> 100 µM (inactive)

Respond only with GI50 recorded for O=CCCn1[nH]c(=O)ccc1=O
> 100 µM (inactive)

Respond only with GI50 recorded for NC(Cc1ccc(O)cn1)C(=O)NC(C(=O)O)c1ccccc1 (stereo not given)
> 100 µM (inactive)

Respond only with GI50 recorded for CCc1nc2ccc(NCCN(C)C)c3c(=O)c4ccccc4n1c23
0.479 µM (active)

Respond only with GI50 recorded for NS(=O)(=O)c1nnc(/N=C(/CCC(=O)O)C(=O)O)s1
> 100 µM (inactive)

Respond only with GI50 recorded for CNC(=O)c1nnn(C2CCCCC2)c1S
> 100 µM (inactive)

Respond only with GI50 recorded for COC(=O)C1(Cc2ccccc2)Cc2cc3c(cc2C1)CCC3
31.3 µM (inactive)

Respond only with GI50 recorded for COC(=O)c1ccccc1NC(=O)C(=O)NNC(=O)c1ccncc1
> 100 µM (inactive)

###

- Test system: NCI-H522
- protocol-notes: NCI tumour cell line growth inhibition, 48 h
The source made the active and inactive calls. No stated cut-off is given here; in the data, active = GI50 up to about 1.1 µM and inactive = higher.
For each record, write down the corresponding GI50.

Respond only with GI50 recorded for CCc1ccc(Nc2cc(=O)[nH]c(=S)n2C)cc1
> 100 µM (inactive)

Respond only with GI50 recorded for Cc1c(Cl)ccc2c1NC(=O)C2(O)C1Cc2ccccc2C1=O (stereo not given)
> 100 µM (inactive)

Respond only with GI50 recorded for O=C(c1ccccc1)c1ccc2[nH]c(-c3c(Cl)c(Cl)c(Cl)c(Cl)c3C(=O)N/N=C/c3cccc(Oc4ccccc4)c3)nc2c1
45 µM (inactive)

Respond only with GI50 recorded for CC(C)=CCC/C(=C/CC/C(C)=C/CCc1ccoc1)C(=O)O
> 100 µM (inactive)

Respond only with GI50 recorded for COC(=O)C12C3C4C1C1C2C3C41C(=O)NC(C)(C)CC(=O)O (stereo not given)
> 100 µM (inactive)

Respond only with GI50 recorded for O=c1oc2ccc3ccccc3c2cc1-c1nc2ccccc2o1
21.3 µM (inactive)

Respond only with GI50 recorded for N=c1c2c(=S)n(-c3ccccc3)c(=S)n(-c3ccccc3)c2nc(SCCCN2CCN(c3cccc(Cl)c3)CC2)n1-c1ccccc1
> 100 µM (inactive)

Respond only with GI50 recorded for COCCNC(=O)C1C(=O)N(CCOC)C(=O)/C1=N/N (stereo not given)
> 100 µM (inactive)

Respond only with GI50 recorded for COC(=O)/C=C(\C)CCC1SC1(C)C (stereo not given)
> 100 µM (inactive)

Respond only with GI50 recorded for CC1(C)CC[C@]2(C)CC[C@]3(C)C(=CC[C@@H]4[C@@]5(C)CCC(=O)C(C)(C)[C@@H]5[C@H](O)C[C@]43C)[C@@H]2C1
17 µM (inactive)

Respond only with GI50 recorded for COc1cc(CNc2nc3cc(C(F)(F)F)ccc3nc2C(=O)O)cc(OC)c1OC
29.2 µM (inactive)

Respond only with GI50 recorded for COc1ccc(/C(Cl)=C(\C=O)c2ccc(OC)cc2)cc1
18.3 µM (inactive)

Respond only with GI50 recorded for COc1ccc2c3c(n(Cc4ccccc4)c(=O)c2c1)-c1cc(OC)c(OC)cc1C3C (stereo not given)
9.08 µM (inactive)

Respond only with GI50 recorded for O=C1CCN(CCC(F)(F)C(F)(F)C(F)(F)C(F)(F)F)C(=S)N1
> 100 µM (inactive)

Respond only with GI50 recorded for O=C(C/N=C(\CN(c1ccccc1)c1ccccc1)Oc1c(Cl)cc(Cl)cc1Cl)n1cnc2ccccc21
84.1 µM (inactive)

Respond only with GI50 recorded for CC(CCC(=O)O)C(=O)O (stereo not given)
> 100 µM (inactive)

Respond only with GI50 recorded for CC(C)(C)OC(=O)NC(CCC(=O)OCc1ccccc1)C(=O)NCCCO (stereo not given)
> 100 µM (inactive)

Respond only with GI50 recorded for CC(=O)Nc1cc(C(=O)Nc2cc(C(=O)Nc3cc(C(=O)Nc4cc(C(=O)Nc5cc(C(=O)NCCC(=O)NCCCN(C)C)n(C)c5)n(C)c4)n(C)c3)n(C)c2)n(C)c1
17.9 µM (inactive)

Respond only with GI50 recorded for O=c1c2ccccc2n2c(S)nnc2n1-c1ccccc1
> 100 µM (inactive)

Respond only with GI50 recorded for NC(=O)CC(N)c1nnn[nH]1 (stereo not given)
> 100 µM (inactive)

Respond only with GI50 recorded for ClCc1nc2ccccc2[nH]1
> 100 µM (inactive)

Respond only with GI50 recorded for CCCN(C(=O)c1ccccc1)C(C#N)c1ccc(C(C#N)N(CCC)C(=O)c2ccccc2)cc1 (stereo not given)
> 100 µM (inactive)

Respond only with GI50 recorded for COC(=O)[C@]12CC[C@H]3CN(C(=O)OCc4ccccc4)[C@H]([C@H]31)[C@H](c1ccco1)N2S(=O)(=O)c1ccc(C)cc1
19.2 µM (inactive)

Respond only with GI50 recorded for [O-][n+]1cc(SCc2ccccc2)ncc1SCc1ccccc1
> 10 µM (inactive)

Respond only with GI50 recorded for S=C1SC(=N\c2ccccc2)/C(=N/c2ccccc2)N1c1ccccc1
> 100 µM (inactive)

Respond only with GI50 recorded for Cc1ccccc1NC(=O)CC(=O)n1nc(-c2ccccc2)c(/N=N/c2ccc([N+](=O)[O-])cc2)c1-c1ccccc1
18.9 µM (inactive)

Respond only with GI50 recorded for CN(N)c1nc(N)c(C#N)c(C#N)c1C#N
> 10 µM (inactive)

Respond only with GI50 recorded for NC1CC(=O)c2csc(Cl)c21 (stereo not given)
1.72 µM (inactive)

Respond only with GI50 recorded for COc1cccc2c1C(=O)C1(O)CCCCC21 (stereo not given)
> 100 µM (inactive)

Respond only with GI50 recorded for CCOC(=O)C(/C(=N/NC(=O)OC)C(=O)Nc1ccc(C(C)=O)cc1)c1cnc2ccccc2n1 (stereo not given)
> 100 µM (inactive)
